Entry source: PubChem BioAssay (NCI)

Tested on: SK-MEL-28 melanoma
Assay: NCI tumour cell line growth inhibition, 48 h
TGI: recorded values

Solved cases (4 shown):
1) COc1ccc(CCN2CCCN3C2=Nc2ccccc2S3(=O)=O)cc1	> 100 µM
2) CC(=O)OCC1OC(n2c(C#N)cc(=O)[nH]c2=O)CC1OC(C)=O (configuration not stated)	> 100 µM
3) NC1OC(COC(=O)c2ccccc2)C(O)C(OC(=O)c2ccccc2)C1OC(=O)c1ccccc1 (configuration not stated)	42.7 µM
4) CCN1C(=S)n2cccc2C1CC(=O)c1ccc(Cl)cc1 (configuration not stated)	> 100 µM

Per the records, this compound ( CN(C)c1ncnc2c1Cc1ccccc1C(=O)N2C ) has TGI equal to > 100 µM

For record Cc1cc(N)ccc1N=Nc1ccc(S(=O)(=O)CCOS(=O)(=O)O)cc1 the listed TGI is 19 µM

Memo: c1ccc(N=c2snc3scc(-c4ccccc4)n23)cc1 , reported TGI: > 100 µM

Lab book: TGI of CCOC(CCCNCCCn1c2c(c3cc(OC)c(OC)cc3c1=O)C(=O)c1cc3c(cc1-2)OCO3)OCC noted as 12.5 µM
